Target: T1, soluble human FcRn (shFcRn) (human, UniProt P55899 24-297; P61769 21-119)
T1 construct: Biotinylated for the ELISA, amine-coupled to a CM5 chip for SPR; also called biotinylated shFcRn
T1 sequence (P55899 24-297 limits assumed, chain 1 of 2): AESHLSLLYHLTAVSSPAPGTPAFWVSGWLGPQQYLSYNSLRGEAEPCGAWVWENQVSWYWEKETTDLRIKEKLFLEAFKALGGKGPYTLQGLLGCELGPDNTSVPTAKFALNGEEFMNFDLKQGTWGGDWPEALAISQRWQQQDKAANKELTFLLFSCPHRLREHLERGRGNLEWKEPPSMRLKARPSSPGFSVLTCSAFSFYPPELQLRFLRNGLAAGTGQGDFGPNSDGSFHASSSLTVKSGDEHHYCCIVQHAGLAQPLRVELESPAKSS
T1 sequence (P61769 21-119 limits assumed, chain 2 of 2): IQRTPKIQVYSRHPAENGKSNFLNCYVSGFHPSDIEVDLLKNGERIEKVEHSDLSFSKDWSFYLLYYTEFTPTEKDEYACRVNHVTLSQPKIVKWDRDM
Test: IgG competition ELISA
Bridge positions count the residues as written; N and C are the ends. Square brackets hold non-standard residues; d marks the D form. Ends that are not written are not given here. Pen = CC(C)(S)[C@H](N)C(=O)O
Result Type: pIC50
Please keep in mind that pIC50 is minus log10 of the molar concentration; only the number is needed.

Consider the worked cases shown below.
QRFCTGHFXGLYPCNGP (Pen 4; Aib 9; disulfide 4-14; C-terminal amide) [Peptide No. 54] :: 4.77
QRF[Pen]TGHF[dH]GLYPCNGP-NH2 (disulfide 4-14; N-terminus assumed; SMILES CC(C)C[C@@H]1NC(=O)CNC(=O)[C@@H](Cc2c[nH]cn2)NC(=O)[C@H](Cc2ccccc2)NC(=O)[C@H](Cc2c[nH]cn2)NC(=O)CNC(=O)[C@H]([C@@H](C)O)NC(=O)[C@@H](NC(=O)[C@H](Cc2ccccc2)NC(=O)[C@H](CCCNC(=N)N)NC(=O)[C@@H](N)CCC(N)=O)C(C)(C)SSC[C@@H](C(=O)N[C@@H](CC(N)=O)C(=O)NCC(=O)N2CCC[C@H]2C(N)=O)NC(=O)[C@@H]2CCCN2C(=O)[C@H](Cc2ccc(O)cc2)NC1=O) [Peptide No. 50] :: 5.44
QRF[Pen]TGHF[dF]GPYPCNGP-NH2 (disulfide 4-14; N-terminus assumed; SMILES C[C@@H](O)[C@@H]1NC(=O)[C@@H](NC(=O)[C@H](Cc2ccccc2)NC(=O)[C@H](CCCNC(=N)N)NC(=O)[C@@H](N)CCC(N)=O)C(C)(C)SSC[C@@H](C(=O)N[C@@H](CC(N)=O)C(=O)NCC(=O)N2CCC[C@H]2C(N)=O)NC(=O)[C@@H]2CCCN2C(=O)[C@H](Cc2ccc(O)cc2)NC(=O)[C@@H]2CCCN2C(=O)CNC(=O)[C@@H](Cc2ccccc2)NC(=O)[C@H](Cc2ccccc2)NC(=O)[C@H](Cc2c[nH]cn2)NC(=O)CNC1=O) [Peptide No. 155] :: 4.41
QRF[Pen]TGHFG[dR]LYPCNGP-NH2 (disulfide 4-14; N-terminus assumed; SMILES CC(C)C[C@@H]1NC(=O)[C@@H](CCCNC(=N)N)NC(=O)CNC(=O)[C@H](Cc2ccccc2)NC(=O)[C@H](Cc2c[nH]cn2)NC(=O)CNC(=O)[C@H]([C@@H](C)O)NC(=O)[C@@H](NC(=O)[C@H](Cc2ccccc2)NC(=O)[C@H](CCCNC(=N)N)NC(=O)[C@@H](N)CCC(N)=O)C(C)(C)SSC[C@@H](C(=O)N[C@@H](CC(N)=O)C(=O)NCC(=O)N2CCC[C@H]2C(N)=O)NC(=O)[C@@H]2CCCN2C(=O)[C@H](Cc2ccc(O)cc2)NC1=O) [Peptide No. 41] :: 5.09
QRF[Pen]TGHF[dR]GLYPCNGP-NH2 (disulfide 4-14; N-terminus assumed; SMILES CC(C)C[C@@H]1NC(=O)CNC(=O)[C@@H](CCCNC(=N)N)NC(=O)[C@H](Cc2ccccc2)NC(=O)[C@H](Cc2c[nH]cn2)NC(=O)CNC(=O)[C@H]([C@@H](C)O)NC(=O)[C@@H](NC(=O)[C@H](Cc2ccccc2)NC(=O)[C@H](CCCNC(=N)N)NC(=O)[C@@H](N)CCC(N)=O)C(C)(C)SSC[C@@H](C(=O)N[C@@H](CC(N)=O)C(=O)NCC(=O)N2CCC[C@H]2C(N)=O)NC(=O)[C@@H]2CCCN2C(=O)[C@H](Cc2ccc(O)cc2)NC1=O) [Peptide No. 49] :: 5.39
QRF[Pen]TGHF[dP][dP]LYPCNGP-NH2 (disulfide 4-14; N-terminus assumed; SMILES CC(C)C[C@@H]1NC(=O)[C@H]2CCCN2C(=O)[C@H]2CCCN2C(=O)[C@H](Cc2ccccc2)NC(=O)[C@H](Cc2c[nH]cn2)NC(=O)CNC(=O)[C@H]([C@@H](C)O)NC(=O)[C@@H](NC(=O)[C@H](Cc2ccccc2)NC(=O)[C@H](CCCNC(=N)N)NC(=O)[C@@H](N)CCC(N)=O)C(C)(C)SSC[C@@H](C(=O)N[C@@H](CC(N)=O)C(=O)NCC(=O)N2CCC[C@H]2C(N)=O)NC(=O)[C@@H]2CCCN2C(=O)[C@H](Cc2ccc(O)cc2)NC1=O) [Peptide No. 152] :: 4.68

Recorded pIC50 (binder QRF[Pen]TGHF[dF]GLYPCNGP-NH2 (disulfide 4-14; N-terminus assumed; SMILES CC(C)C[C@@H]1NC(=O)CNC(=O)[C@@H](Cc2ccccc2)NC(=O)[C@H](Cc2ccccc2)NC(=O)[C@H](Cc2c[nH]cn2)NC(=O)CNC(=O)[C@H]([C@@H](C)O)NC(=O)[C@@H](NC(=O)[C@H](Cc2ccccc2)NC(=O)[C@H](CCCNC(=N)N)NC(=O)[C@@H](N)CCC(N)=O)C(C)(C)SSC[C@@H](C(=O)N[C@@H](CC(N)=O)C(=O)NCC(=O)N2CCC[C@H]2C(N)=O)NC(=O)[C@@H]2CCCN2C(=O)[C@H](Cc2ccc(O)cc2)NC1=O) [Peptide No. 52] ): 5.55

Recorded pIC50 (binder QRF[Pen]TGHF[dF][dP]LYPCNGP-NH2 (disulfide 4-14; N-terminus assumed; SMILES CC(C)C[C@@H]1NC(=O)[C@H]2CCCN2C(=O)[C@@H](Cc2ccccc2)NC(=O)[C@H](Cc2ccccc2)NC(=O)[C@H](Cc2c[nH]cn2)NC(=O)CNC(=O)[C@H]([C@@H](C)O)NC(=O)[C@@H](NC(=O)[C@H](Cc2ccccc2)NC(=O)[C@H](CCCNC(=N)N)NC(=O)[C@@H](N)CCC(N)=O)C(C)(C)SSC[C@@H](C(=O)N[C@@H](CC(N)=O)C(=O)NCC(=O)N2CCC[C@H]2C(N)=O)NC(=O)[C@@H]2CCCN2C(=O)[C@H](Cc2ccc(O)cc2)NC1=O) [Peptide No. 150] ): 5.23
